System name: T1, his avi huNKG2D ECD (human, biotinylated at the avi-tag (in the ELISA))
T1 construct: Human NKG2D ECD with N-terminal H6-avi tags, forms non-covalent dimers; also called recombinant human NKG2D
T1 chain: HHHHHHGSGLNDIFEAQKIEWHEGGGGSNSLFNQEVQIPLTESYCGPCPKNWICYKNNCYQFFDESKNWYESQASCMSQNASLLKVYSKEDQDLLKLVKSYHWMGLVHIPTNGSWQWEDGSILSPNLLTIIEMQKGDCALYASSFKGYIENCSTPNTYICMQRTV
Protocol text: ELISA; biotinylated antigen on streptavidin plate

Binder	OD max [OD]
anti-NKG2D antibody clone 395 (antibody, V domains shown, From transgenic rabbits; rabbit VH, human VL) VH: QEQLEQSGGGLVTPGGSLKLCCTASGFDFNTFWMTWVRQAPGKGLEWIGCIHGGSGSRDYASWVNGRFTLSRDIDQSTACLQVNSLTAADTAMYYCARPGYRSWSKTFDLWGQGTMVTVSS VL: DIQMTQSPSSLSASVGDRVTITCRASQDISGALNWYQQKPGKAPNLLIYAASSLQSGVPSRFSGSGSGTDYTLTISSLQPEDFATYYCQQANSFPLTFGGGTKVEIK	2.4
anti-NKG2D antibody clone 296 (antibody, V domains shown, From transgenic rabbits) VH: EVQLLESGGGLVQPGGSLRLSCAASGFTFSSYAMSWVRQAPGKGLEWVSAIGIGGGGTYYADSVKGRFTISRDNSKNTLYLQMNSLRAEDTAVYHCAKGASFDFINFFPYWGQGTLVTVSS VL: DIQMTQSPSSLSASVGDRVTITCRASQGISNDLAWYQQKPGKAPKLLIYAASSLQSGVPSRFSGSGSGTDFTLTISSLQPEDFATYYCQQTYSTPLTFGGGTKVEIK	2.1
anti-NKG2D antibody clone 230 (antibody, V domains shown, From transgenic rabbits) VH: QQLEQSGGGLVKPGGSLELCCIASGFDFSTYWMTWVRQAPGKGLEWIGCIHGGGSGTTSYASWVNGRFTLSRDIDQSTGCLQLTSLTAADTAMYYCARPGYRSWSKTFDLWGQGTMVTVSS VL: DIQMTQSPSSLSASVGDRVTITCQANQDISNALNWYQQKPGKAPKLLIYAASSLQSGVPSRFSGSGSGTDFTLTISSLQPEDFAAYYCQQAASFPLTFGGGTKVEIK	2.4
